From: PubChem BioAssay AID192

# Test system: BDF1 mice, B16 melanoma ip, median survival T/C
# protocol-details: NCI In Vivo Anticancer Drug Screen. Data for tumor model B16 Melanoma (intraperitoneal) in B6D2F1 (BDF1) mice
# measurement-context: endpoint: median survival time; dose: 200.0 mg/kg/injection; schedule: Q04DX003 (ip); vehicle: saline; higher = longer survival
Inconclusive results and toxic doses are left out.
experimental-readout: T/C

Answered cases to consult:
{"compound": "CCO/C=C1\\SC(=S)N(c2ccco2)C1=O", "T/C": "102 % of control"}
{"compound": "CC1C=CCC(C)(C)C1 (stereo not given)", "T/C": "97 % of control"}
{"compound": "COc1cc(C(=O)OC(C)CN2CCOCC2)cc(OC)c1OC (stereo not given)", "T/C": "118 % of control"}
{"compound": "NCCc1c[nH]c2ccccc12", "T/C": "112 % of control"}

Consider the additional compound presented here.
Problem: What T/C value was documented for this compound, `C[n+]1cccc(O)c1` ?
Result: 97 % of control

---

Catalogue of molecules with associated T/C
# Test system: BDF1 mice, B16 melanoma ip, median survival T/C
# protocol-details: NCI In Vivo Anticancer Drug Screen. Data for tumor model B16 Melanoma (intraperitoneal) in B6D2F1 (BDF1) mice
# measurement-context: endpoint: median survival time; dose: 6.25 mg/kg/injection; schedule: Q01DX009 (ip); vehicle: Klucel (hydroxypropylcellulose) (HPC); higher = longer survival
Inconclusive results and toxic doses are left out.

Answered cases to consult:
{"molecule": "CC(C)=CCN1CCC2(C)c3cc(O)ccc3CC1C2C (stereo unspecified)", "experimental-readout": "T/C", "result": "105 % of control"}
{"molecule": "[CH3][Hg][O]C(C)=O", "experimental-readout": "T/C", "result": "86 % of control"}
{"molecule": "CS(=O)(=O)OCCN(CCOS(C)(=O)=O)c1ccc(C=Nc2ccc3oc(=O)ccc3c2)cc1", "experimental-readout": "T/C", "result": "120 % of control"}

Problem: What T/C value was documented for this molecule, CCC(CO)NC(=O)C1C=C2c3cccc4[nH]cc(c34)CC2N(C)C1 (stereo unspecified) ?
Result: 93 % of control

Problem: What T/C value was documented for this molecule, `COc1ccc2cc3[n+](cc2c1OC)CCc1cc2c(cc1-3)OCO2` ?
Result: 105 % of control

Problem: What T/C value was documented for this molecule, `COc1cccc(NC(=O)CCC(=O)O)c1` ?
Result: 92 % of control

---

# Tested on: BDF1 mice, B16 melanoma ip, median survival T/C
# protocol-details: NCI In Vivo Anticancer Drug Screen. Data for tumor model B16 Melanoma (intraperitoneal) in B6D2F1 (BDF1) mice
# measurement-context: endpoint: median survival time; dose: 10.0 mg/kg/injection; schedule: Q01DX009 (ip); vehicle: saline with Tween-80
Inconclusive results and toxic doses are left out. The calls were made as follows: active = survival T/C of 150% or more; inactive = T/C below 125% in these data.
Select the matching outcome among label 1 for active, label 0 for inactive

{"molecule": "[Cu+2].[NH-]C1(C(=O)O)CCCC1.[NH-]C1(C(=O)O)CCCC1", "system-tested": "BDF1 mice, B16 melanoma ip, median survival T/C", "label": "label 0"}
{"molecule": "C1CC[N-]CC1.C1CC[N-]CC1.C1CC[N-]CC1.C1CC[N-]CC1.N#C[S-].N#C[S-].[Ni]", "system-tested": "BDF1 mice, B16 melanoma ip, median survival T/C", "label": "label 0"}
{"molecule": "[Cl][Pt+2][Cl].[NH-]C1CCCC1.[NH-]C1CCCC1", "system-tested": "BDF1 mice, B16 melanoma ip, median survival T/C", "label": "label 0"}
{"molecule": "Nc1cc2c(c[n+](CCCCCCCC[n+]3cc4c5ccccc5c(N)cc4c4ccccc43)c3ccccc23)c2ccccc12", "system-tested": "BDF1 mice, B16 melanoma ip, median survival T/C", "label": "label 1"}
{"molecule": "CC1CC(C)(O)C2C3(C)CCCC2(COC3=O)C12CCC1(CCOC1=O)O2 (stereo unspecified)", "system-tested": "BDF1 mice, B16 melanoma ip, median survival T/C", "label": "label 0"}

Problem: Call for entry `COc1cccc(/C=C/[N+](=O)[O-])c1` :
Result: label 0

---

Catalogue of compounds with associated T/C
# System: BDF1 mice, B16 melanoma ip, median survival T/C
# protocol-details: NCI In Vivo Anticancer Drug Screen. Data for tumor model B16 Melanoma (intraperitoneal) in B6D2F1 (BDF1) mice
# measurement-context: endpoint: median survival time; dose: 100.0 mg/kg/injection; schedule: Q01DX009 (ip); vehicle: Klucel (hydroxypropylcellulose) (HPC); higher = longer survival
# Protocol: The antitumor activity of compounds was measured in mice bearing transplantable tumors. Survival or tumor size were measured and the results are expressed as the measurement made in the treated group (T) divided by the measurement made in the vehicle treated control group (C). The tumor model used in this assay is B16 Melanoma (intraperitoneal) in B6D2F1 (BDF1) mice
Toxic doses and inconclusive results are not listed.

Answered cases to consult:
{"compound": "CC(=O)CC(=O)Nc1cc(Cl)ccc1C", "T/C": "92 % of control"}
{"compound": "CC1(C)CC(O)(Cc2ccccc2)C(=O)c2ccccc21 (configuration not stated)", "T/C": "94 % of control"}
{"compound": "CN(Cc1ccccc1)Cc1ccccc1", "T/C": "100 % of control"}
{"compound": "CCOC(=O)C1C(=O)CC(=O)C(C(=O)OCC)C1c1ccc(O)cc1 (configuration not stated)", "T/C": "100 % of control"}
{"compound": "CCOc1ccc(NC(=O)COc2ccc(Cl)cc2)cc1", "T/C": "103 % of control"}
{"compound": "CCC(CO)NC(=O)C1C=C2c3cccc4[nH]cc(c34)CC2N(C)C1 (configuration not stated)", "T/C": "86 % of control"}
{"compound": "CCOC(=O)c1c(C)[nH]c2c(-c3ccccc3)c3cc(Cl)ccc3nc12", "T/C": "104 % of control"}
{"compound": "Cc1ccc2nc(-c3cc(Br)ccc3O)c(-c3cc(Br)ccc3O)nc2c1", "T/C": "90 % of control"}
{"compound": "COc1ccc(NC(=O)c2cccc(C(=O)Nc3ccc(OC)cc3)c2)cc1", "T/C": "102 % of control"}
{"compound": "CC1(C)CCSC(/C=C/c2ccccc2)=N1", "T/C": "94 % of control"}

Problem: What T/C value was documented for this compound, `Cc1cnc2c(N)[nH]nc2n1` ?
Result: 106 % of control

Problem: What T/C value was documented for this compound, `Cc1cnc2c(NC(=O)CCl)nn(C)c2n1` ?
Result: 101 % of control

---

# System: BDF1 mice, B16 melanoma ip, median survival T/C
# protocol-details: NCI In Vivo Anticancer Drug Screen. Data for tumor model B16 Melanoma (intraperitoneal) in B6D2F1 (BDF1) mice
# measurement-context: endpoint: median survival time; dose: 0.37 mg/kg/injection; schedule: Q01DX009 (ip); vehicle: Klucel (hydroxypropylcellulose) (HPC); higher = longer survival
Inconclusive results and toxic doses are left out.
Catalogue of compounds with associated T/C

{"compound": "O=C(O)CCCc1ccc(N(CCCl)CCCl)cc1", "system-tested": "BDF1 mice, B16 melanoma ip, median survival T/C", "T/C": "100 % of control"}
{"compound": "Nc1nc(N)c2nc(CN(CCO)c3ccc(C(=O)NC(CCC(=O)O)C(=O)O)cc3)cnc2n1 (centres undefined)", "system-tested": "BDF1 mice, B16 melanoma ip, median survival T/C", "T/C": "99 % of control"}
{"compound": "C/C=C(\\C)C(=O)OC1C(C)=C2C(C1OC(=O)CCCC)C(C)(OC(C)=O)CC(OC(=O)CCCC)C1(O)C2OC(=O)C1(C)O (centres undefined)", "system-tested": "BDF1 mice, B16 melanoma ip, median survival T/C", "T/C": "90 % of control"}

Problem: Tell me reported T/C for CCC(C)Nc1ccc(N)cc1 (centres undefined) , tested with BDF1 mice, B16 melanoma ip, median survival T/C.
Result: 89 % of control

---

# Tested on: BDF1 mice, B16 melanoma ip, median survival T/C
# protocol-details: NCI In Vivo Anticancer Drug Screen. Data for tumor model B16 Melanoma (intraperitoneal) in B6D2F1 (BDF1) mice
# measurement-context: endpoint: median survival time; dose: 25.0 mg/kg/injection; schedule: Q01DX009 (ip); vehicle: saline with Tween-80
Inconclusive results and toxic doses are left out. Rule for the calls: active = survival T/C of 150% or more; inactive = T/C below 125% in these data.
Select the matching outcome among Yes = active, No = inactive

{"compound": "CCc1cc2c(cc1C(=O)CBr)C(C)(C)CCC2(C)C", "label": "No"}

Problem: Call for entry O=C(NC(CSCc1ccccc1)C(=O)O)OCc1ccccc1 (stereo not given) :
Result: No

Problem: Call for entry `COc1ccc(C(=O)c2no[n+]([O-])c2C(=O)c2ccc(OC)cc2)cc1` :
Result: No

Problem: Call for entry `Cc1cccc(C)c1C1=NCCN1` :
Result: No

Problem: Call for entry `Cc1ccc(NC(=O)COc2ccc(Cl)cc2)c(C)c1` :
Result: No

Problem: Call for entry `O=C(Nc1ccccc1C(F)(F)F)C(c1ccccc1)c1ccccc1` :
Result: No

Problem: Call for entry `C=CC(=O)NCNC(=O)C=C` :
Result: No

Problem: Call for entry CCCCCCOC(CN(C)C)C(Cl)(Cl)Cl (stereo not given) :
Result: No

Problem: Call for entry `O=C(Nc1ccc2c(c1)OCO2)O/N=C1\C(=O)Nc2ccccc21` :
Result: No

Problem: Call for entry `CC(=O)N(C)O` :
Result: No

Problem: Call for entry COC1OC2COC(c3ccccc3)OC2C(O)C1N (stereo not given) :
Result: No
